Target: UniProt Q02763
Sequence (Q02763 23-1124): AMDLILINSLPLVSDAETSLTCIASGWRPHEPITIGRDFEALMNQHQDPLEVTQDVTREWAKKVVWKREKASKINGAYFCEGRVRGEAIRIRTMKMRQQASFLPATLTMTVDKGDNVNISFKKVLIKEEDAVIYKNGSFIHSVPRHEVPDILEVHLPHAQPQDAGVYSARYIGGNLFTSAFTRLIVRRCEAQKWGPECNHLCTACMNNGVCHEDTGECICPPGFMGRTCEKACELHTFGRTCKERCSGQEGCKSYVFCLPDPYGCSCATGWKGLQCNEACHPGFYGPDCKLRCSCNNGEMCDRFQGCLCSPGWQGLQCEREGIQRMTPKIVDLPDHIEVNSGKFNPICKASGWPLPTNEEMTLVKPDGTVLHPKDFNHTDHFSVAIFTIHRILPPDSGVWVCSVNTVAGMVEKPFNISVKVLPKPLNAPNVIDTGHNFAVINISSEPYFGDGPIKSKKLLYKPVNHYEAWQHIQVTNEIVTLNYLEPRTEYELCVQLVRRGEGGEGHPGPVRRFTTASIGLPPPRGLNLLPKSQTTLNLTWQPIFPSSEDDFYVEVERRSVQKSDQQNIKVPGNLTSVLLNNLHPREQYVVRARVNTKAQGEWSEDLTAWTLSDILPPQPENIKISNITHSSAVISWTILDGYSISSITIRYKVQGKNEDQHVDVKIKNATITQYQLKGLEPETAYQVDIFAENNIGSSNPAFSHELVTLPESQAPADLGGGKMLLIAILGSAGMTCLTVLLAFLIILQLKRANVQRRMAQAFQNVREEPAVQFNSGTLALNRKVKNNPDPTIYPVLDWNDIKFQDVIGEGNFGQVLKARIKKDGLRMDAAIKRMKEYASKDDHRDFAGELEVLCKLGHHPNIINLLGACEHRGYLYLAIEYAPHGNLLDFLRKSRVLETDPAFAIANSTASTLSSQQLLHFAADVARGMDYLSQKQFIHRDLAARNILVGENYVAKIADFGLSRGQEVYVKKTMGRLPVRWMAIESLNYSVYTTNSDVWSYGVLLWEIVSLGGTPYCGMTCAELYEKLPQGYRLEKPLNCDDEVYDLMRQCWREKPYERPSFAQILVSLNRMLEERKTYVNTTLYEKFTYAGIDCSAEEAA
pIC50: −log10 of the molar value.
Readout: pIC50

GET /value?item= O=C(Nc1ccc(-c2cnc3nc2NCCCNS(=O)(=O)c2cccc(c2)N3)cc1)Nc1cccc(C(F)(F)F)c1 &field=pIC50 returns ≥ 6.00
